GI50 values by entry
Tested on: SW-620
Assay: NCI tumour cell line growth inhibition, 48 h
Activity calls are given as the source filed them. Rule as the data show it: active = GI50 up to about 1.1 µM and inactive = higher.

{"molecule": "CC12CC(OC(=O)[C@]1(C)O)[C@@H]([C@]1(O)CC[C@H]3[C@@H]4C[C@H]5O[C@]56[C@@H](O)C=CC(=O)[C@]6(C)[C@H]4CC[C@@]31C)C2 (some centres not stated)", "tested on": "SW-620", "GI50": "3.18 µM (inactive)"}
{"molecule": "COc1ccc2c(c1)NC1(CCN(CCCC(=O)c3ccc(F)cc3)CC1)N=N2", "tested on": "SW-620", "GI50": "23.8 µM (inactive)"}
{"molecule": "Cc1ccc2c(c1)CC1(C2=O)[C@H](c2ccccc2)C2C(=O)c3ccc(C)cc3C2[C@H]1c1ccccc1 (some centres not stated)", "tested on": "SW-620", "GI50": "> 100 µM (inactive)"}
{"molecule": "C/C1=C\\[C@H](C)C[C@H](C)OC(=O)C[C@H](c2ccc(O)cc2)NC(=O)[C@H](Cc2ccc(O)c(Br)c2)N(C)C(=O)[C@H](C)NC(=O)[C@@H](C)C1", "tested on": "SW-620", "GI50": "> 25 µM (inactive)"}
{"molecule": "Cn1c(N)[n+](C(=O)OCc2ccccc2)c(=O)c2c1ncn2C(=O)OCc1ccccc1", "tested on": "SW-620", "GI50": "> 100 µM (inactive)"}

For the molecule shown here, CCOC(=O)NC(=O)c1cn(CCN(CCO)C(=O)NCCCCCCNC(=O)N(CCO)CCn2cc(C(=O)NC(=O)OCC)c(=O)[nH]c2=O)c(=O)[nH]c1=O , give the reported GI50. > 100 µM (inactive)

For the molecule shown here, COc1cc(OC)c2c(=O)c3cccc(C)c3n(C)c2c1 , give the reported GI50. > 100 µM (inactive)

====

Test system: T47D
Assay: NCI tumour cell line growth inhibition, 48 h
The source made the active and inactive calls. Cut-off read from the data, not from the text of the source: active = GI50 up to about 1.1 µM and inactive = higher.
measurement kind: GI50

# count of solved cases: 3
{"compound": "ClC1(Cl)C2CCOC21n1cnc2ccccc21 (configuration not stated)", "tested on": "T47D", "observed measurement": "> 100 µM (inactive)"}
{"compound": "COC(=O)[C@H](Cc1ccccc1)NC(=O)NCCN(CCNC(=O)N[C@@H](Cc1ccccc1)C(=O)OC)C(=O)N[C@@H](Cc1ccccc1)C(=O)OC", "tested on": "T47D", "observed measurement": "22.6 µM (inactive)"}
{"compound": "COc1ccc(/C=C2\\CN(C)Cc3c2nc(O)c(C#N)c3-c2ccc(OC)cc2)cc1", "tested on": "T47D", "observed measurement": "80.4 µM (inactive)"}

For the compound shown here, COc1cc(OC)cc(Oc2nc3ccccc3nc2C(F)(F)F)c1 , give the reported GI50. > 100 µM (inactive)

====

GI50 values by entry
Test system: K562
Test: NCI tumour cell line growth inhibition, 48 h
The source made the active and inactive calls. No stated cut-off is given here; in the data, active = GI50 up to about 1.1 µM and inactive = higher.

{"compound": "C[C@]12CC[C@H](O)C[C@@H]1CC[C@@H]1[C@@H]2CC[C@]2(C)[C@@H](c3cc(C(F)(F)F)[nH]n3)CC[C@@H]12", "GI50": "3.25 µM (inactive)"}
{"compound": "CC(=O)OC1CC[C@@]2(C)C(CC(OC3OC(CO)C(O)C(O)C3O)[C@]3(C)C2CCC24CC23CC[C@H]4C(C)CC(O)[C@@H](O)C(C)(C)O)C1(C)C (some centres undefined)", "GI50": "15.4 µM (inactive)"}
{"compound": "CN(c1ccccc1)c1nc(=[N+]2CCCC2)ss1.[O-][Cl+3]([O-])([O-])[O-]", "GI50": "74.5 µM (inactive)"}
{"compound": "O=C(Nc1ccccc1)c1cc2c(cc1Cl)SC(NNCCO)=NS2(=O)=O", "GI50": "> 100 µM (inactive)"}
{"compound": "FC(F)(F)c1cc(C2SCc3nc4ccccc4n32)cc(C(F)(F)F)c1 (centres undefined)", "GI50": "2.97 µM (inactive)"}

For the compound shown here, O=c1[nH]cnc2cccc(Cl)c12 , give the reported GI50. > 100 µM (inactive)

For the compound shown here, C/C(=N\O)C(CN(C)C)C(c1ccccc1)c1c(O)c2ccccc2oc1=O (centres undefined) , give the reported GI50. > 100 µM (inactive)

For the compound shown here, Clc1ccc(C(c2ccc(Cl)cc2)c2cncnc2)cc1 , give the reported GI50. 21.9 µM (inactive)

For the compound shown here, CCN(CC)CCSc1c(C(C)=O)c(=O)n(-c2ccccc2)c(=S)n1-c1ccccc1 , give the reported GI50. 3.09 µM (inactive)

====

GI50 values by entry
System: MDA-N
Assay: NCI tumour cell line growth inhibition, 48 h
The source made the active and inactive calls. No stated cut-off is given here; in the data, active = GI50 up to about 1.1 µM and inactive = higher.

# count of solved cases: 5
{"compound": "CCc1nc(N)nc(N)c1-c1ccc(N(C)Cc2ccccc2)c([N+](=O)[O-])c1", "tested on": "MDA-N", "observed measurement": "0.0243 µM (active)"}
{"compound": "COc1cc(C2(O)c3ccccc3C3=NCCN32)cc(OC)c1OC (centres undefined)", "tested on": "MDA-N", "observed measurement": "> 100 µM (inactive)"}
{"compound": "O=c1[nH]c(=O)n(C2OC(CO)C(O)C2O)cc1OCCCc1ccccc1 (centres undefined)", "tested on": "MDA-N", "observed measurement": "> 100 µM (inactive)"}
{"compound": "COC(C(=O)C(O)C(C)O)C1CC2C=C3C=C(OC4CC(OC5CC(O)C(OC)C(C)O5)C(OC(C)=O)C(C)O4)C(C)C(O)=C3C(O)=C2C(=O)C1OC1CC(OC2CC(OC3CC(C)(O)C(OC(=O)C(C)C)C(C)O3)C(O)C(C)O2)C(O)C(C)O1 (centres undefined)", "tested on": "MDA-N", "observed measurement": "< 0.01 µM (active)"}
{"compound": "CN1CC(c2ccccc2)=CC2=C1C=CC(=N)/C2=N\\N", "tested on": "MDA-N", "observed measurement": "> 100 µM (inactive)"}

For the compound shown here, COC(=O)C1=C(C)NC(C)=C(C(=O)OC)C1c1ccc(/[N+]([O-])=C/c2ccccc2)cc1 , give the reported GI50. 34.4 µM (inactive)

For the compound shown here, CCCCc1ccc(Nc2nc3c(ncn3C3OC(COC(C)=O)C(OC(C)=O)C3OC(C)=O)c(=O)[nH]2)cc1 (centres undefined) , give the reported GI50. 19.5 µM (inactive)

For the compound shown here, FC(F)(F)c1ccc2c(-c3cc[nH]c3)ccnc2c1 , give the reported GI50. 32.3 µM (inactive)

For the compound shown here, Cn1c2c(c3ccccc31)CCN1OCC=C[C@@H](C(=O)O)[C@@H]21 , give the reported GI50. > 100 µM (inactive)

For the compound shown here, COC(=O)C1CC(C=[N+](C)C)=C(SC)N1 (centres undefined) , give the reported GI50. > 100 µM (inactive)

For the compound shown here, CC1C(=O)OC2CC[N+]3([O-])CC=C(COC(=O)C(C)(O)C1(C)O)C23 (centres undefined) , give the reported GI50. > 100 µM (inactive)

====

Tested on: SF-295
Assay: NCI tumour cell line growth inhibition, 48 h
Calls of active or inactive are those of the source. Cut-off read from the data, not from the text of the source: active = GI50 up to about 1.1 µM and inactive = higher.
measurement kind: GI50

{"compound": "COc1ccc(/C=C2\\CN(C)Cc3c2nc(O)c(C#N)c3-c2ccc(OC)cc2)cc1", "measurement kind": "GI50", "observed measurement": "38.3 µM (inactive)"}
{"compound": "CC(C)Oc1cccc(N2C(NCc3c[nH]c4ccccc34)=Nc3ccncc3S2(=O)=O)c1", "measurement kind": "GI50", "observed measurement": "18.7 µM (inactive)"}
{"compound": "Cc1cc(-n2nnc(C(=O)O)c2-c2ccccc2)c2ccc(Cl)cc2n1", "measurement kind": "GI50", "observed measurement": "> 100 µM (inactive)"}
{"compound": "CC(=O)OC[C@]1(C)CCCC2(C)C1CCC1C=C(C)[C@H]3CCC12C3 (stereo partly specified)", "measurement kind": "GI50", "observed measurement": "35 µM (inactive)"}
{"compound": "COc1ccc(-c2c3ccccc3c(-c3ccc(OCCCCCBr)cc3)c3ccccc23)cc1", "measurement kind": "GI50", "observed measurement": "> 100 µM (inactive)"}
{"compound": "COc1ccc(OCC(=N/NC(=O)c2ccncc2)/N=C/c2ccncc2)cc1", "measurement kind": "GI50", "observed measurement": "42.9 µM (inactive)"}

Field: GI50 (SF-295). Entry: COC(=O)/C=C(\S/C=C(/c1ccccc1)N1CCn2c(C(=O)c3ccccc3)c(C(=O)OC)c(C(=O)OC)c21)C(=O)OC > 10 µM (inactive)

Field: GI50 (SF-295). Entry: CCCCCCCCCCCCCCCC(=O)OC1C(O)C(CO)OC(OC)C1NC(=O)N(CCCl)N=O (stereo unspecified) 10.6 µM (inactive)

Field: GI50 (SF-295). Entry: Nc1nc(-c2ccccc2)c(Cl)c(-c2cc(Cl)ccc2O)n1 48.4 µM (inactive)

Field: GI50 (SF-295). Entry: CCCCCCCCCC1C(C)c2c([nH]c3ccccc23)C2C(=O)N(c3ccccc3)C(=O)C21 (stereo unspecified) 15.4 µM (inactive)

Field: GI50 (SF-295). Entry: COc1ccc(Nc2cc(O)nc(O)n2)cc1 > 100 µM (inactive)
